Molecular target: human alpha1 nicotinic acetylcholine (nACh) receptor (Homo sapiens, UniProt P02708+Q07001)
Sequence (P02708 21-457): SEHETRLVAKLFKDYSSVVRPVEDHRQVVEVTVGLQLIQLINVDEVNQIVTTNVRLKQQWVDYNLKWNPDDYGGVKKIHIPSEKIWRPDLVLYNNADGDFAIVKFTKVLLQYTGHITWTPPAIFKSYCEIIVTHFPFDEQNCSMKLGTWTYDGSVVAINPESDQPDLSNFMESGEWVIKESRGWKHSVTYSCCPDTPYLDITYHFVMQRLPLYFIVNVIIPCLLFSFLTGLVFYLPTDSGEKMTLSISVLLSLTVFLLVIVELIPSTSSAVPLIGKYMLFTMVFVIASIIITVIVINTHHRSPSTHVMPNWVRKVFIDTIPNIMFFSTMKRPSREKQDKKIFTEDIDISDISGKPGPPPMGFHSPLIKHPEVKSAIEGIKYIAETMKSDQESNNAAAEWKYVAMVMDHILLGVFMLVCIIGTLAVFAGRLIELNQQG
Sequence (P11230 24-501 partner): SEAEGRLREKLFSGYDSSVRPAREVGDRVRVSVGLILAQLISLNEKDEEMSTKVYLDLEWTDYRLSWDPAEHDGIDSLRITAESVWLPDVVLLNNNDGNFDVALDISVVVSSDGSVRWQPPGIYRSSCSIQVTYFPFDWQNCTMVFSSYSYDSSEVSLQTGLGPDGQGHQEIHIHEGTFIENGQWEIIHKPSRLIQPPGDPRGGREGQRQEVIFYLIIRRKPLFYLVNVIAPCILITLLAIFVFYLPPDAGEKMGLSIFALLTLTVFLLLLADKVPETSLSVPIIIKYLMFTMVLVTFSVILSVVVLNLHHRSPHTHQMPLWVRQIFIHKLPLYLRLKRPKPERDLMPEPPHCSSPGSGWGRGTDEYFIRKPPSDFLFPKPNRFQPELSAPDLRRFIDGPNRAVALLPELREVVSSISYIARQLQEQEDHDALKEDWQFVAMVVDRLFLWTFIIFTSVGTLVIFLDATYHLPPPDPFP
Sequence (Q07001 22-517): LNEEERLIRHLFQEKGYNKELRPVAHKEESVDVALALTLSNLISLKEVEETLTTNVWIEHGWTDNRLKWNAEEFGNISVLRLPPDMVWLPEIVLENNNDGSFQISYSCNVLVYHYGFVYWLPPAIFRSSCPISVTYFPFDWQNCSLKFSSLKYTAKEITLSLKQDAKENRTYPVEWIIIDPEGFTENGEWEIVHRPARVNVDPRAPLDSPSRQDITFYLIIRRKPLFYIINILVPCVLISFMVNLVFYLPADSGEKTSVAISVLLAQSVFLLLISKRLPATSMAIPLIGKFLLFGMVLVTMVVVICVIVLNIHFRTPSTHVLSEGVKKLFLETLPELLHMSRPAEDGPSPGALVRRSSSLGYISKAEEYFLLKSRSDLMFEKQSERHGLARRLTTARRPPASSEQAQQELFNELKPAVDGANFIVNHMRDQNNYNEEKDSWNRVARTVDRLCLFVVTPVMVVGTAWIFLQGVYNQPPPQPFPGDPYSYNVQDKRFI
Assay: Nicotinic Acetylcholine Receptor Antagonism Assay (IONFlux automated patch clamp)
Format: cell-based
Conditions: maximum percentage antagonism at Maximum Concentration of Compound Tested 100 μM; read-out: Maximum Response (%)
Counter-ions that a name gives are not always drawn.
ATTRIBUTE_MEASURED: Emax at 100 µM (%)
Enter your answer as a number in %; do not include the unit.

{"COMPOUND": "CO[C@@H]1COCC[C@@H]1N[C@@H]1CC[C@](CCCCNC(=O)[C@H]2CC[C@H](NC(=O)CCCO[C@H]3CC[C@H](OCCNC(=O)[C@H]4CC(=O)N(C)[C@@H]4c4cccnc4)CC3)CC2)(C(=O)N2CCc3ncc(C(F)(F)F)cc3C2)C1 [Example 7]", "READING": 54}
{"COMPOUND": "CO[C@@H]1COCC[C@@H]1N[C@@H]1CC[C@](CCCCNC(=O)[C@H]2CC[C@H](NC(=O)CCCO[C@H]3CC[C@@H](OCCNC(=O)[C@H]4CC(=O)N(C)[C@@H]4c4cccnc4)CC3)CC2)(C(=O)N2CCc3ncc(C(F)(F)F)cc3C2)C1 [Example 10]", "READING": 26}

The recorded Emax at 100 µM for entry CO[C@@H]1COCC[C@@H]1N[C@@H]1CC[C@](CCCNC(=O)[C@H]2CC[C@@H](NC(=O)CCCO[C@H]3CC[C@@H](OCCNC(=O)[C@H]4CC(=O)N(C)[C@@H]4c4cccnc4)CC3)CC2)(C(=O)N2CCc3ncc(C(F)(F)F)cc3C2)C1 [Example 4, Formic acid salt] equals 48
